Target: Sodium channel alpha subunits; brain (Types I, II, III) (Rattus norvegicus, UniProt P04775+P04774+P08104)
Assay: Inhibition of [3H]BTX-B binding to Neuronal voltage-dependent sodium channel of rat cerebral cortex synaptoneurosomes
Assay type: tissue-based
Quantity measured: IC50 (µM)
One number for each entry, in µM.

Worked examples, 6 compounds total:
# input Please look at this compound and report its IC50: CC12C(=O)NC(=O)N1CCc1ccccc12 (centres undefined)
# output 250

# input Please look at this compound and report its IC50: O=C1NC(=O)C2(CCc3ccccc32)N1 (centres undefined)
# output 2112

# input Please look at this compound and report its IC50: CCCCC1(c2cccc(C)c2)NC(=O)NC1=O (centres undefined)
# output 58

# input Please look at this compound and report its IC50: O=C1NC(=O)C2(CCCc3ccccc32)N1 (centres undefined)
# output 851

# input Please look at this compound and report its IC50: `CCN1C(=O)NC(=O)[C@@]1(C)c1ccccc1`
# output 720

# input Please look at this compound and report its IC50: O=C1NC(=O)C2(CCCCCc3ccccc32)N1 (centres undefined)
# output 251

Please state, for each entry, its recorded IC50.
1. CCCCC1(c2ccc(C)cc2)NC(=O)NC1=O (centres undefined)
2. O=C1NC(=O)C2(CCCCc3ccccc32)N1 (centres undefined)
3. CCCCC1(c2ccccc2C)NC(=O)NC1=O (centres undefined)

# output
1. 95
2. 251
3. 225

Data provenance is ChEMBL document CHEMBL1130433.
